The following molecules are shown together with reported IC50 values.
Target: human orexin-2 receptor (Homo sapiens (Human), UniProt O43614)
Sequence (O43614 whole entry): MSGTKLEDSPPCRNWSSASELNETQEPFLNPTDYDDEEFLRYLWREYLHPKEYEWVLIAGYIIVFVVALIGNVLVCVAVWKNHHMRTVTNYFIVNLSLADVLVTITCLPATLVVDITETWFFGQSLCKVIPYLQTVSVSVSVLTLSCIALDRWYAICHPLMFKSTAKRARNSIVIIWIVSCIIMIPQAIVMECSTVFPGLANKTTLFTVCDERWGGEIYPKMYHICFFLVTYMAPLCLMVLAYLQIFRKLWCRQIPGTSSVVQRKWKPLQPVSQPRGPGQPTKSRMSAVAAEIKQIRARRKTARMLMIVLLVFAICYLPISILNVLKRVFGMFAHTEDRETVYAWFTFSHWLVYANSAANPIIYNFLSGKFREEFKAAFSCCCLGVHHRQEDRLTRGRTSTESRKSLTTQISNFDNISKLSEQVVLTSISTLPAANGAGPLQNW
Experiment: FLIPR Ca2+ flux assay, orexin-2 receptor
Format: cell-based
Details: CHO cells expressing human orexin-2 receptor; agonist 70 pM Ala-6,12 orexin-A; read-out: hOX2R FLIPR IC50
reported endpoint: IC50

>>> value_reported("C[C@@H]1CC[C@@H](Oc2cc(OCC(F)F)ccn2)CN1C(=O)c1ccsc1-c1ncccn1")
"36 nM"
>>> value_reported("C[C@@H]1CC[C@@H](Oc2cc(OCC(F)(F)F)ccn2)CN1C(=O)c1ccsc1-c1ncccn1")
"26 nM"
>>> value_reported("C[C@@H]1CC[C@@H](Oc2cc(OCC(F)F)ccn2)CN1C(=O)c1c(F)cccc1-n1nccn1")
"56 nM"
>>> value_reported("COc1ccnc(O[C@@H]2CC[C@@H](C)N(C(=O)c3c(F)cccc3-n3nccn3)C2)c1")
"27 nM"

* * *

Target: hOX1R (Homo sapiens)
Assay: FLIPR Ca2+ flux assay, orexin-1 receptor
Conditions: CHO cells expressing orexin-1 receptor; agonist 70 pM Ala-6,12 orexin-A
pIC50: −log10 of the molar value.
reported endpoint: pIC50

>>> value_reported("COc1ccnc(O[C@@H]2CC[C@@H](C)N(C(=O)c3ccsc3-c3ncccn3)C2)c1")
5.96
>>> value_reported("CC(C)Oc1ccnc(O[C@@H]2CC[C@@H](C)N(C(=O)c3cc(F)ccc3-n3nccn3)C2)c1")
5.61
>>> value_reported("COc1ccnc(O[C@@H]2CC[C@@H](C)N(C(=O)c3ccc(F)cc3-n3nccn3)C2)c1")
5.74
>>> value_reported("COc1ccnc(O[C@@H]2CC[C@@H](C)N(C(=O)c3ccc(OC)cc3-n3nccn3)C2)c1")
5.00
>>> value_reported("C[C@@H]1CC[C@@H](Oc2cc(OC(F)F)ccn2)CN1C(=O)c1ccccc1-n1ncnn1")
5.77
>>> value_reported("C[C@@H]1CC[C@@H](Oc2cc(OCc3ccccc3)ccn2)CN1C(=O)c1ccccc1-n1nccn1")
5.73
>>> value_reported("C[C@@H]1CC[C@@H](Oc2cc(OCC(F)F)ccn2)CN1C(=O)c1ccc(F)cc1-n1nccn1")
5.49
>>> value_reported("COc1ccnc(O[C@@H]2CC[C@@H](C)N(C(=O)c3ccccc3-n3ncnn3)C2)c1")
5.66

* * *

The following compounds are shown together with reported IC50 values.
Biological target: human orexin-2 receptor (Homo sapiens (Human))
Assay: FLIPR Ca2+ flux assay, orexin-2 receptor
Settings: CHO cells expressing human orexin-2 receptor; agonist 70 pM Ala-6,12 orexin-A; read-out: hOX2R FLIPR IC50
reported endpoint: IC50 (nM)

>>> value_reported("CC(C)Oc1ccnc(O[C@@H]2CC[C@@H](C)N(C(=O)c3ccc(F)cc3-n3nccn3)C2)c1 [Example 23]")
41.2
>>> value_reported("C[C@@H]1CC[C@@H](Oc2cc(OCC(F)F)ccn2)CN1C(=O)c1cccc(F)c1-n1nccn1 [Example 34]")
42
>>> value_reported("COc1ccnc(O[C@@H]2CC[C@@H](C)N(C(=O)c3ccccc3-n3nccn3)C2)c1C(C)=O [Example 51]")
12.3
>>> value_reported("COc1ccnc(O[C@@H]2CC[C@@H](C)N(C(=O)c3ccc(OC)cc3-n3nccn3)C2)c1 [Example 20]")
114
>>> value_reported("CC(C)Oc1ccnc(O[C@@H]2CC[C@@H](C)N(C(=O)c3ccsc3-n3nccn3)C2)c1 [Example 61]")
25
>>> value_reported("CC(C)Oc1ccnc(O[C@@H]2CC[C@@H](C)N(C(=O)c3cc(F)ccc3-n3nccn3)C2)c1 [Example 26]")
37.2
>>> value_reported("C[C@@H]1CC[C@@H](Oc2cc(OC3CC3)ccn2)CN1C(=O)c1ccccc1-n1nccn1 [Example 40]")
15.2

* * *

The following molecules are shown together with reported pIC50 values.
Target: hOX1R (Homo sapiens, UniProt O43613)
Test: FLIPR Ca2+ flux assay, orexin-1 receptor
Settings: CHO cells expressing orexin-1 receptor; agonist 70 pM Ala-6,12 orexin-A
pIC50: −log10 of the molar value.
reported endpoint: pIC50

>>> value_reported("C[C@@H]1CC[C@@H](Oc2cc(OCC(F)(F)F)ccn2)CN1C(=O)c1ccsc1-n1nccn1")
5.08
>>> value_reported("C[C@@H]1CC[C@@H](Oc2cc(OCC(F)(F)F)ccn2)CN1C(=O)c1ccsc1-c1ncccn1")
5.68
>>> value_reported("COc1ccnc(O[C@@H]2CC[C@@H](C)N(C(=O)c3ccccc3-n3nccn3)C2)c1C")
6.25
>>> value_reported("CCOc1ccnc(O[C@@H]2CC[C@@H](C)N(C(=O)c3ccccc3-n3nccn3)C2)c1")
6.07

* * *

Target: human orexin-2 receptor (Homo sapiens (Human), UniProt O43614)
Assay: FLIPR Ca2+ flux assay, orexin-2 receptor
Conditions: CHO cells expressing human orexin-2 receptor; agonist 70 pM Ala-6,12 orexin-A; read-out: hOX2R FLIPR IC50
The following compounds are shown together with reported IC50 values.
reported endpoint: IC50 (nM)

>>> value_reported("CC(C)Oc1ccnc(O[C@@H]2CC[C@@H](C)N(C(=O)c3ccccc3-n3ncnn3)C2)c1")
23
>>> value_reported("CCCOc1ccnc(O[C@@H]2CC[C@@H](C)N(C(=O)c3ccccc3-n3nccn3)C2)c1")
38.7
>>> value_reported("CCOc1ccccc1C(=O)N1C[C@H](Oc2cc(OC)ccn2)CC[C@H]1C")
34.8
>>> value_reported("COc1ccnc(O[C@@H]2CC[C@@H](C)N(C(=O)c3ccsc3-n3nccn3)C2)c1")
11
>>> value_reported("C[C@@H]1CC[C@@H](Oc2cc(OC(F)F)ccn2)CN1C(=O)c1ccccc1C1(C#N)CC1")
11
>>> value_reported("C[C@@H]1CC[C@@H](Oc2cc(OCC(F)F)ccn2)CN1C(=O)c1ncccc1-n1nccn1")
71
>>> value_reported("C[C@@H]1CC[C@@H](Oc2cc(OCC(F)F)ccn2)CN1C(=O)c1ccsc1-n1nccn1")
22
>>> value_reported("CCOc1ccnc(O[C@@H]2CC[C@@H](C)N(C(=O)c3ccsc3-n3nccn3)C2)c1")
22

* * *

Target: hOX1R (Homo sapiens)
Experiment: FLIPR Ca2+ flux assay, orexin-1 receptor
Conditions: CHO cells expressing orexin-1 receptor; agonist 70 pM Ala-6,12 orexin-A
pIC50: −log10 of the molar value.
The following compounds are shown together with reported pIC50 values.
reported endpoint: pIC50

>>> value_reported("COc1ccnc(O[C@@H]2CC[C@@H](C)N(C(=O)c3ccccc3-n3nccn3)C2)c1")
6.21
>>> value_reported("C[C@@H]1CC[C@@H](Oc2cc(OCC(F)F)ccn2)CN1C(=O)c1ccccc1-n1nccn1")
5.85
>>> value_reported("C[C@@H]1CC[C@@H](Oc2cc(OC3CC3)ccn2)CN1C(=O)c1ccccc1-n1nccn1")
6.24
>>> value_reported("Cc1noc(-c2ccccc2C(=O)N2C[C@H](Oc3cc(OCC(F)F)ccn3)CC[C@H]2C)n1")
5.57
>>> value_reported("CC(C)Oc1ccnc(O[C@@H]2CC[C@@H](C)N(C(=O)c3ccccc3-n3nccn3)C2)c1")
6.17
>>> value_reported("COc1ccnc(O[C@@H]2CC[C@@H](C)N(C(=O)c3ccccc3C(F)(F)F)C2)c1")
5.76
>>> value_reported("C[C@@H]1CC[C@@H](Oc2cc(OCF)ccn2)CN1C(=O)c1ccccc1-n1nccn1")
6.31
>>> value_reported("CCOc1ccnc(O[C@@H]2CC[C@@H](C)N(C(=O)c3ccccc3-n3ncnn3)C2)c1")
5.70

* * *

Target: UniProt:O43614
Assay: FLIPR Ca2+ flux assay, orexin-2 receptor
Settings: CHO cells expressing human orexin-2 receptor; agonist 70 pM Ala-6,12 orexin-A; read-out: hOX2R FLIPR IC50
reported endpoint: IC50

>>> value_reported("C[C@@H]1CC[C@@H](Oc2cc(OC(F)F)ccn2)CN1C(=O)c1ccccc1-n1nccn1 [Example 52]")
"0.004 µM"
>>> value_reported("CCOc1ccnc(O[C@@H]2CC[C@@H](C)N(C(=O)c3ccccc3-n3ncnn3)C2)c1 [Example 8]")
"0.0354 µM"
>>> value_reported("C[C@@H]1CC[C@@H](Oc2cc(OCC(F)F)ccn2)CN1C(=O)c1ncccc1-c1ncccn1 [Example 47]")
"0.084 µM"
>>> value_reported("C[C@@H]1CC[C@@H](Oc2cc(OCC(F)F)ccn2)CN1C(=O)c1ccccc1-n1nccn1 [Example 27]")
"0.012 µM"
>>> value_reported("C[C@@H]1CC[C@@H](Oc2cc(OCC(F)F)ccn2)CN1C(=O)c1ccc(F)cc1-c1ncccn1 [Example 46]")
"0.063 µM"
>>> value_reported("COc1ccnc(O[C@@H]2CC[C@@H](C)N(C(=O)c3ccccc3-n3nccn3)C2)c1C=O [Example 50]")
"0.0375 µM"
>>> value_reported("COc1ccnc(O[C@@H]2CC[C@@H](C)N(C(=O)c3ccsc3-c3ncccn3)C2)c1 [Example 58]")
"0.021 µM"
>>> value_reported("COc1ccnc(O[C@@H]2CC[C@@H](C)N(C(=O)c3ccc(OC)nc3-c3ccccc3)C2)c1 [Example 15]")
"0.0245 µM"
